# measurement description: activators of glucose-dependent insulin secretion, dose response, cell-based, INS-1E, Gaussia luciferase, luminescence, cherry-pick, set 2 (AID 977607);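 note: 0% = median of the plate neutral control wells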
# condition context: INS-1E GLuc insulin secretion reporter, 2-3 h, stronger effect = higher value; at 35 µM, 100% = signal doubled over neutral wells unless noted
In all, about 1,500 compounds went through this assay and about 460 (31%) were called active. Inconclusive results (about 1%) are left out. A selection follows. Measured potencies and affinities stand elsewhere.
readout type: max activation

compound=O=C(Nc1nccs1)c1cc(N2CCOCC2)nc2ccccc12 experimental_result="-23.7% (inactive)"
compound=Nc1[nH]c(C(=O)c2ccccc2)c(-c2c(F)cccc2F)c1C(=O)c1ccc(Cl)c(Cl)c1 experimental_result="53.9% (inactive)"
compound=CN1CCN(C(=O)c2cccc(-c3cnc4cnc(-c5ccccc5Oc5ccccc5)cn34)c2)CC1 experimental_result="-43% (inactive)"
compound="O=C(COC(=O)c1ncc(Cl)c(Cl)c1Cl)NC1CCS(=O)(=O)C1 (configuration not stated)" experimental_result="-18.3% (inactive)"
compound=CC(=O)Nc1ccc(S(=O)(=O)Nc2ccc3c(c2)n(C)c(=O)n3C)c(C)c1 experimental_result="-23.1% (inactive)"

As a next step, examine the compound that follows.
[in] State the recorded max activation for this entry: `COc1ccccc1CSc1nc2c(c(=O)n(C)c(=O)n2C)n1C`
[out] -16.4% (inactive)
